Values were extracted from the supplement of paper PMC10567573.

B1: LMNB1 (parent)
chain: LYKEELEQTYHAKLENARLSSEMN

- Variants of: B1
- test.protocol: protein stability index of a GFP-peptide fusion (GPS, HEK-293T) (PSI 1-6); higher = more stable;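 further: lentivirally expressed fusions sorted by FACS into six bins by GFP to DsRed ratio, PSI derived from sequencing read proportions per bin multiplied by bin number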
- measurement.conditions: c terminus: a fixed tail appended
Readings of protein stability index for the listed variants

Reported protein stability index of LKKEELEQTYHAKLENARLSSEMN [Y2K] : 3.27

According to the records, this variant LYKEELEQTYHAKLENARYSSEMN [L19Y] displays protein stability index of 2.36

The variant identified as LYKEELEQTYHAKLENARLSVEMN [S21V] registered its protein stability index at 2.26

Note to self: protein stability index recorded for LYKQELEQTYHAKLENARLSSEMN [E4Q] was 2.56

protein stability index in this record for LYKEELEQQYHAKLENARLSSEMN [T9Q] : 3.77

Record summary for LYKEELEQTYHAKLENARLGSEMN [S20G] : reported protein stability index = 2.7

New cases:
# variant LYKEELEQTYHAKLENARLSKEMN [S21K] ; its protein stability index = 2.91

// protein stability index lookup, variant = LYKEELEQTYWAKLENARLSSEMN [H11W] , result: 3.08

The variant listed as LYKVELEQTYHAKLENARLSSEMN [E4V] has a reported protein stability index of 2.97

get_value(item= LYKEELEQTKHAKLENARLSSEMN [Y10K] , readout=protein stability index) returns 5.14
